Source: the supplement of paper PMC10307832

# Tested on: NCI-H2228
# METHOD_NOTES: relative viability (nuclei count vs DMSO), 5 days (fraction); higher = more cells survive
# RUN_PARAMETERS: first compound 0.3162 µM
Each entry below lists one item and its recorded relative viability value.
REPORTED_PROPERTY: relative viability

{"COMPOUND": "O=c1cc(N2CCOCC2)oc2c(-c3cccc4c3sc3ccccc34)cccc12 + CC(C)C[C@H](NC(=O)[C@H](Cc1ccccc1)NC(=O)c1cnccn1)B(O)O [Bortezomib] (partner 0.002 µM)", "VALUE": 1.33}
{"COMPOUND": "CCN(CC)CCCCNc1ncc2cc(-c3cc(OC)cc(OC)c3)c(NC(=O)NC(C)(C)C)nc2n1 + COc1cc2c(Oc3ccc(NC(=O)C4(C(=O)Nc5ccc(F)cc5)CC4)cc3F)ccnc2cc1OCCCN1CCOCC1 [Foretinib] (partner 0.25 µM)", "VALUE": 0.998}

###

# Test system: NCI-H441
# METHOD_NOTES: relative viability (nuclei count vs DMSO), 5 days (fraction); higher = more cells survive
# RUN_PARAMETERS: first compound 0.08 µM
Each entry below lists one item and its recorded relative viability value.
REPORTED_PROPERTY: relative viability

{"MOLECULE": "O=c1cc(-c2cccc3c2Sc2ccccc2S3)oc(N2CCOCC2)c1 + C[C@@H](Oc1cc(-c2cnn(C3CCNCC3)c2)cnc1N)c1c(Cl)ccc(F)c1Cl [Crizotinib] (partner 1 µM)", "REPORTED_PROPERTY": "relative viability", "VALUE": 0.697}
{"MOLECULE": "COc1nc(C)cnc1NS(=O)(=O)c1cccnc1-c1ccc(-c2nnco2)cc1 [Zibotentan] + COc1cc2c(Oc3ccc(NC(=O)C4(C(=O)Nc5ccc(F)cc5)CC4)cc3F)ccnc2cc1OCCCN1CCOCC1 [Foretinib] (partner 0.25 µM)", "REPORTED_PROPERTY": "relative viability", "VALUE": 1.11}
{"MOLECULE": "COc1nc(C)cnc1NS(=O)(=O)c1cccnc1-c1ccc(-c2nnco2)cc1 [Zibotentan] + CC1(C)CCC(c2ccc(Cl)cc2)=C(CN2CCN(c3ccc(C(=O)NS(=O)(=O)c4ccc(N[C@H](CCN5CCOCC5)CSc5ccccc5)c(S(=O)(=O)C(F)(F)F)c4)cc3)CC2)C1 [Navitoclax] (partner 0.5 µM)", "REPORTED_PROPERTY": "relative viability", "VALUE": 0.635}
{"MOLECULE": "COc1nc(C)cnc1NS(=O)(=O)c1cccnc1-c1ccc(-c2nnco2)cc1 [Zibotentan] + N=C(N)NC(=N)NCCc1ccccc1 [Phenformin] (partner 250 µM)", "REPORTED_PROPERTY": "relative viability", "VALUE": 1.07}

###

# Tested on: A549
# METHOD_NOTES: relative viability (nuclei count vs DMSO), 5 days (fraction); higher = more cells survive
# RUN_PARAMETERS: first compound 0.253 µM
REPORTED_PROPERTY: relative viability

{"MOLECULE": "O=c1cc(-c2cccc3c2Sc2ccccc2S3)oc(N2CCOCC2)c1 + Cc1nc(NC(=O)N2CCC[C@H]2C(N)=O)sc1-c1ccnc(C(C)(C)C(F)(F)F)c1 [Alpelisib] (partner 2 µM)", "VALUE": 0.958}
{"MOLECULE": "O=c1cc(-c2cccc3c2Sc2ccccc2S3)oc(N2CCOCC2)c1 + CS(=O)(=O)N1CCN(Cc2cc3nc(-c4cccc5[nH]ncc45)nc(N4CCOCC4)c3s2)CC1 [Pictilisib] (partner 1 µM)", "VALUE": 0.852}
{"MOLECULE": "O=c1cc(-c2cccc3c2Sc2ccccc2S3)oc(N2CCOCC2)c1 + CC1(C)CCC(c2ccc(Cl)cc2)=C(CN2CCN(c3ccc(C(=O)NS(=O)(=O)c4ccc(N[C@H](CCN5CCOCC5)CSc5ccccc5)c(S(=O)(=O)C(F)(F)F)c4)cc3)CC2)C1 [Navitoclax] (partner 0.5 µM)", "VALUE": 1.51}
{"MOLECULE": "COc1nc(C)cnc1NS(=O)(=O)c1cccnc1-c1ccc(-c2nnco2)cc1 [Zibotentan] + C[C@@H](Oc1cc(-c2cnn(C3CCNCC3)c2)cnc1N)c1c(Cl)ccc(F)c1Cl [Crizotinib] (partner 1 µM)", "VALUE": 0.696}
